# tgt: PPAR delta (Homo sapiens)
# assay name: Transient transfection (transactivation) assay in CV-1 cells, GAL4-PPAR chimera, luciferase reporter
Property: EC50; scope: individual compounds

Worked cases, EC50 given:
The compound O=C(O)Cc1cccc(S(=O)(=O)N2CCN(c3ccccc3)CC2)c1 [Example 145] showed EC50 equal to 5 to 100 µM

The compound O=C(O)Cc1cccc(S(=O)(=O)N2CCN(CC3CCCCC3)CC2)c1 [Example 132] showed EC50 equal to > 100 µM

The compound Cc1ccc(S(=O)(=O)N2CCN(c3ccc(Cl)cn3)CC2)cc1CC(=O)O [Example 62] showed EC50 equal to < 5 µM

The compound Cc1ccc(S(=O)(=O)N2CCCN(c3nc4ccccc4o3)CC2)cc1CC(=O)O [Example 26] showed EC50 equal to 5 to 100 µM

The compound Cc1ccc(S(=O)(=O)N2CCN(c3ncc(C(F)(F)F)cc3Cl)CC2)cc1CC(=O)O [Example 54] showed EC50 equal to < 5 µM

---
The compound C[C@H]1CN(c2ccc(OC(F)(F)F)cc2)CCN1S(=O)(=O)c1cccc(CC(=O)O)c1 [Example 226] showed EC50 equal to < 5 µM

The compound CN(C)Cc1cc(CC(=O)O)cc(S(=O)(=O)N2CCN(c3ccc(C(F)(F)F)cc3)CC2)c1 [Example 84] showed EC50 equal to > 100 µM

====

# tgt: PPAR delta (Homo sapiens, UniProt Q03181)
# Sequence (Q03181 211-439 limits assumed): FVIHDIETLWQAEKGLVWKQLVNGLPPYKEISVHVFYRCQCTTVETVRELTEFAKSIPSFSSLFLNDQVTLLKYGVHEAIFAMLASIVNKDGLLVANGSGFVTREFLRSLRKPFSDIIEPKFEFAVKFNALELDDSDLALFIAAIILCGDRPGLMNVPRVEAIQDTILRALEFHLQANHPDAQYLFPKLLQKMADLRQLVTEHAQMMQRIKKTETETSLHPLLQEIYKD
# assay name: Transient transfection (transactivation) assay in CV-1 cells, GAL4-PPAR chimera, luciferase reporter
pEC50: −log10 of the molar value.
measured parameter: pEC50

Worked cases, pEC50 given:
The compound COc1ccc(N2CCN(S(=O)(=O)c3cccc(CC(=O)O)c3)CC2)cc1OC showed pEC50 equal to < 4.00

The compound Cc1ccc(S(=O)(=O)N2CCN(c3nc4ccccc4s3)CC2)cc1CC(=O)O showed pEC50 equal to > 5.30

The compound Cc1cccc(N2CCN(S(=O)(=O)c3cc(CC(=O)O)ccc3C)CC2C)c1 (stereo not shown) showed pEC50 equal to < 4.00

---
The compound Cc1ccc(S(=O)(=O)N2CCCN(c3nc4ccccc4s3)CC2)cc1CC(=O)O showed pEC50 equal to 4.00 to 5.30

The compound Cc1ccc(S(=O)(=O)N2CCN(c3ncc(I)cn3)CC2)cc1CC(=O)O showed pEC50 equal to > 5.30

The compound COCCNCc1cc(CC(=O)O)cc(S(=O)(=O)N2CCN(c3ccc(C(F)(F)F)cc3)CC2)c1 showed pEC50 equal to < 4.00

The compound Cc1cc(CC(=O)O)cc(S(=O)(=O)N2CCN(c3ccc(C)c(C)c3)CC2)c1 showed pEC50 equal to 4.00 to 5.30

====

Property: pEC50; scope: individual molecules
# tgt: PPAR alpha (Homo sapiens)
# assay name: Transient transfection (transactivation) assay in CV-1 cells, GAL4-PPAR chimera, luciferase reporter
# Experimental: Compounds may be screened for functional potency in transient transfection assays in CV-1 cells or other cell types for their ability to activate the PPAR subtypes (transactivation assay). […] Luciferase activity was then assayed with Britelite (Perkin Elmer) following the manufacturer's protocol and measured with either the Perkin Elmer Viewlux or Molecular Devices Acquest Xsee, for example, Kliewer, S. A., et. al. Cell 1995, 83, 813-819). […]
pEC50: −log10 of the molar value.

Worked cases, pEC50 given:
The molecule Cc1ccc(S(=O)(=O)N2CCN(c3ccc(OC(F)(F)F)cc3)CC2)cc1CC(=O)O [Example 87] showed pEC50 equal to > 5.30

The molecule O=C(O)Cc1cccc(S(=O)(=O)N2CCN(C(c3ccccc3)c3ccc(Cl)cc3)CC2)c1 (centres unmarked) [Example 134] showed pEC50 equal to < 4.00

The molecule Cc1ccc(S(=O)(=O)N2CCN(c3ncc(I)cn3)CC2)cc1CC(=O)O [Example 44] showed pEC50 equal to > 5.30

---
The molecule O=C(O)Cc1cc(Br)cc(S(=O)(=O)N2CCN(c3ccc(C(F)(F)F)cn3)CC2)c1 [Example 199] showed pEC50 equal to 4.00 to 5.30

The molecule Cc1ccc(S(=O)(=O)N2CCN(c3ccc(C(F)(F)F)cc3F)CC2)cc1CC(=O)O [Example 33] showed pEC50 equal to > 5.30

The molecule Cc1ccc(N2CCN(S(=O)(=O)c3cc(CC(=O)O)ccc3C)CC2)c(C)c1 [Example 148] showed pEC50 equal to < 4.00

The molecule Cc1ccc(S(=O)(=O)N2CCN(c3ccc(OC(F)(F)F)cc3)C[C@@H]2C)cc1CC(=O)O [Example 214] showed pEC50 equal to 4.00 to 5.30

The molecule C[C@@H]1CN(c2ccc(C(F)(F)F)cn2)C[C@H](C)N1S(=O)(=O)c1cccc(CC(=O)O)c1 [Example 220] showed pEC50 equal to 4.00 to 5.30

The molecule O=C(O)COc1cccc(S(=O)(=O)N2CCN(c3ccc(C(F)(F)F)cc3)CC2)c1 [Example 190] showed pEC50 equal to < 4.00

The molecule Cc1ccc(S(=O)(=O)N2CC=C(c3ccc(C(F)(F)F)cc3)CC2)cc1CC(=O)O [Example 45] showed pEC50 equal to 4.00 to 5.30

====

# tgt: PPAR alpha (Homo sapiens, UniProt Q07869)
# Sequence (Q07869 239-466 limits assumed): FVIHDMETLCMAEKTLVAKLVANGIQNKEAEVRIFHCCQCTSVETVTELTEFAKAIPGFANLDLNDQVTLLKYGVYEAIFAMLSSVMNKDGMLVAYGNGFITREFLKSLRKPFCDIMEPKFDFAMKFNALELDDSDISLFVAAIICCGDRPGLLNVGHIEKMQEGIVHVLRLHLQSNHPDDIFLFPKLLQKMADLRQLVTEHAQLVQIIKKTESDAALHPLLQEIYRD
# assay name: Transient transfection (transactivation) assay in CV-1 cells, GAL4-PPAR chimera, luciferase reporter
# Experimental: Compounds may be screened for functional potency in transient transfection assays in CV-1 cells or other cell types for their ability to activate the PPAR subtypes (transactivation assay). […] Luciferase activity was then assayed with Britelite (Perkin Elmer) following the manufacturer's protocol and measured with either the Perkin Elmer Viewlux or Molecular Devices Acquest Xsee, for example, Kliewer, S. A., et. al. Cell 1995, 83, 813-819). […]
Property: EC50; scope: individual compounds

Worked cases, EC50 given:
The compound Cc1ccc(S(=O)(=O)N2CCN(c3ccc(C(F)(F)F)cc3Br)CC2)cc1CC(=O)O showed EC50 equal to < 5 µM

The compound COc1ccc(S(=O)(=O)N2CCN(c3ccc(C(F)(F)F)cn3)CC2)cc1CC(=O)O showed EC50 equal to > 100 µM

The compound Cc1ccc(CC(=O)O)cc1S(=O)(=O)N1CCN(c2ccc(C(C)(C)C)cc2)CC1 showed EC50 equal to > 100 µM

---
The compound Cc1ccc(CC(=O)O)cc1S(=O)(=O)N1CCN(c2ccc(Cl)cc2)CC1 showed EC50 equal to > 100 µM

The compound Cc1ccc(S(=O)(=O)N2CCN(c3ccc(C(F)(F)F)cn3)CC2C)cc1CC(=O)O (stereo not shown) showed EC50 equal to 5 to 100 µM

The compound CCNCc1cc(CC(=O)O)cc(S(=O)(=O)N2CCN(c3ccc(C(F)(F)F)cc3)CC2)c1 showed EC50 equal to > 100 µM

The compound Cc1ccc(S(=O)(=O)N2CCN(c3nc(Cl)cs3)CC2)cc1CC(=O)O showed EC50 equal to > 100 µM

====

# tgt: PPAR alpha (Homo sapiens, UniProt Q07869)
# assay name: Transient transfection (transactivation) assay in CV-1 cells, GAL4-PPAR chimera, luciferase reporter
pEC50: −log10 of the molar value.
measured parameter: pEC50

The compound Cc1ccc(S(=O)(=O)N2C[C@@H]3C[C@H]2CN3c2cccc(F)c2)cc1CC(=O)O showed pEC50 equal to < 4.00

The compound Cc1ccc(S(=O)(=O)N2CCN(c3ccc(Cl)cc3)CC2)cc1CC(=O)O showed pEC50 equal to < 4.00

Now, please, on to the next compound.
The compound Cc1ccc(S(=O)(=O)N2CCN(c3ccc(C(F)(F)F)c(Cl)c3)CC2)cc1CC(=O)O showed pEC50 equal to > 5.30

====

# tgt: PPAR delta (Homo sapiens)
# assay name: Transient transfection (transactivation) assay in CV-1 cells, GAL4-PPAR chimera, luciferase reporter
pEC50: −log10 of the molar value.
Property: pEC50; scope: individual compounds

Worked cases, pEC50 given:
The compound Cc1ccc(CC(=O)O)cc1S(=O)(=O)N1CCN(C(c2ccccc2)c2ccc(Cl)cc2)CC1 (stereo not drawn) [Example 164] showed pEC50 equal to 4.00 to 5.30

The compound Cc1ccc(S(=O)(=O)N2CCN(c3ccc(Cl)c(Cl)c3)CC2)cc1CC(=O)O [Example 175] showed pEC50 equal to > 5.30

The compound C[C@@H]1CN(S(=O)(=O)c2cccc(CC(=O)O)c2)C[C@H](C)N1c1ccc(C(F)(F)F)cn1 [Example 227] showed pEC50 equal to > 5.30

The compound Cc1ccc(S(=O)(=O)N2CCN(c3ncc(F)cn3)CC2)cc1CC(=O)O [Example 63] showed pEC50 equal to > 5.30

---
The compound Cc1ccc(S(=O)(=O)N2CCN(c3ccc(C(F)(F)F)c(Cl)c3)CC2)cc1CC(=O)O [Example 93] showed pEC50 equal to > 5.30

The compound COc1ccc(S(=O)(=O)N2CCN(c3ccc(C(F)(F)F)cn3)CC2)cc1CC(=O)O [Example 76] showed pEC50 equal to > 5.30

The compound COc1ccc(S(=O)(=O)N2[C@H](C)CN(c3ccc(C(F)(F)F)cn3)C[C@@H]2C)cc1CCC(=O)O [Example 194] showed pEC50 equal to > 5.30
